Experiment: Solubility in water of hydrochloride and acetate salts
Type: physicochemical
Conditions: content 10 mg/1 ml distilled water, room temperature
observation-type: Solubility in water (%), acetate salt

compound	display-unit	Solubility in water (%), acetate salt
N=C(NC(=N)N1CCCCC1)Nc1ccc(OC(F)(F)F)cc1 [Example 73]	%	100
N=C(NC(=N)N1CCCC1)Nc1ccc(C(F)(F)F)cc1 [Example 70]	%	100
N=C(NC(=N)N1CCCC1)Nc1ccc(C(F)(F)F)c(F)c1 [Example 74]	%	100

* * *

Test system: HCT116 cells
Experiment: Measurement of effect of inhibiting cancer cell proliferation (MTT)
Type: cell-based, human
Details: Homo sapiens, HCT-116, 48 h
observation-type: GI50 (µM)

compound	meas-value
Cl.N=C(NC(=N)N1CCCCC1)Nc1ccc(C(F)(F)F)c(F)c1 [Example 49, hydrochloride]	5.2

[1] Cl.N=C(NC(=N)N1CCC1)Nc1ccc(OC(F)(F)F)c(F)c1 [Example 52, hydrochloride]
[2] Cl.N=C(NC(=N)N1CCCCC1)Nc1ccc(OC(F)(F)F)cc1 [Example 33, hydrochloride]
Smaller GI50 value, 1 vs 2 ? Kindly give the label for the entry you pick. 2
